- Tested on: 171881-019-R-J1-PDC tumor spheroids, viability;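 also: spheroids exposed to compounds for 7 days; 100% = DMSO vehicle control viability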
- Protocol: Anticancer human tumor 171881-019-R-J1-PDC patient-derived invasive breast carcinoma cell line growth inhibition [GQUAD]
- Applied conditions: second compound 1 µM; first compound 0.000999 µM; stronger effect = lower value; spheroids with HUVEC and MSC
Measured viability, T/C, listed per entry for reference.
Express your answer in %, writing the number without its unit.

Below, 5 molecules whose answers are already recorded.
Cn1ncnc1[C@H]1c2n[nH]c(=O)c3cc(F)cc(c23)N[C@@H]1c1ccc(F)cc1 + Cc1cnc(CNC(=O)c2c(=O)c3ccc(N4CCCN(C)CC4)nc3n3c2sc2ccccc23)cn1	68
CC[C@@]1(O)C(=O)OCc2c1cc1n(c2=O)Cc2cc3c(CN(C)C)c(O)ccc3nc2-1 + Cc1cnc(CNC(=O)c2c(=O)c3ccc(N4CCCN(C)CC4)nc3n3c2sc2ccccc23)cn1	71.6
CCc1c2c(nc3ccc(O)cc13)-c1cc3c(c(=O)n1C2)COC(=O)[C@]3(O)CC + Cc1cnc(CNC(=O)c2c(=O)c3ccc(N4CCCN(C)CC4)nc3n3c2sc2ccccc23)cn1	60.3
CCc1c2c(nc3ccc(O)cc13)-c1cc3c(c(=O)n1C2)COC(=O)[C@]3(O)CC + Cc1[nH]c2ccc(F)cc2c1-c1nc2c3cccnc3c3ncccc3c2[nH]1	66.6
CC[C@@]1(O)C(=O)OCc2c1cc1n(c2=O)Cc2cc3c(CN(C)C)c(O)ccc3nc2-1 + Cc1[nH]c2ccc(F)cc2c1-c1nc2c3cccnc3c3ncccc3c2[nH]1	87.6

Hello, please tell me recorded viability, T/C for this one: Cc1[nH]c2ccccc2c1CCNCc1ccc(/C=C/C(=O)NO)cc1 + Cc1[nH]c2ccc(F)cc2c1-c1nc2c3cccnc3c3ncccc3c2[nH]1
66.8

Complete the entry with viability, T/C for Cc1[nH]c2ccccc2c1CCNCc1ccc(/C=C/C(=O)NO)cc1 + Cc1cnc(CNC(=O)c2c(=O)c3ccc(N4CCCN(C)CC4)nc3n3c2sc2ccccc23)cn1
71.9

Recorded values, source PubChem BioAssay AID2060498.
